Known melting point of a selection of molecules

Answered examples (5):
- molecule: "CC1(C)CCC(N)(C(N)=O)CC1"
  melting point: "149 to 151 °C"
- molecule: "COc1cc(C(=O)O)ccc1OCc1csc(C)n1"
  melting point: "172 to 174 °C"
- molecule: "Nc1nc(C2CC2)ns1"
  melting point: "144 to 146 °C"
- molecule: "O=C(O)CC1CCCN1Cc1nc2ccccc2c(=O)[nH]1 (configuration not stated)"
  melting point: "197 to 199 °C"
- molecule: "CN(C)CCN1C(=O)C(=O)c2cc(Br)ccc21"
  melting point: "102 to 104 °C"

Quick note, melting point for CC(=O)N(c1ccccc1)c1nc(C=O)cs1 landed at 150 to 152 °C

Query CN(C)C(=O)c1ccc(Cl)c(NC(=O)OCC(F)(F)F)c1 yields melting point of 96 to 98 °C

Per the records, this molecule ( O=C(O)c1nnn(C2CC2)c1C(F)(F)F ) has melting point equal to 90 to 92 °C

The recorded melting point for CCNCc1cccc(NC(=O)c2cc(Cl)c[nH]2)c1 is 126 to 128 °C

Query Oc1cc(C(F)(F)F)nc(-c2cccnc2)n1 yields melting point of 277 to 279 °C

The recorded melting point for entry Nc1ccccc1-c1nc(C2CC2)no1 equals 84 to 86 °C

In plain terms, Cc1c(C(=O)O)nnn1-c1ccc2c(c1)OCCO2 has a documented melting point of 189 to 191 °C

Entry O=C(O)C(Oc1cccc(Cl)c1Cl)c1ccccc1 (configuration not stated) — recorded melting point = 147 to 149 °C

###

Items are presented alongside their recorded melting point.

- smiles_text: "NC(=O)c1ccsc1NC(=O)CCl"
  reported: "148 to 150 °C"

Query Cc1ccc(NS(=O)(=O)c2ccsc2C(=O)O)cc1 yields melting point of 192 to 194 °C

Nc1nc(-c2ccco2)cs1 has a reported melting point of 109 to 111 °C

Per the records, this compound ( CC(C)COC(=O)N1CCC(C(=O)O)CC1 ) has melting point equal to 69 to 71 °C

For reference, reported melting point for N#Cc1cccc(Cc2cnc(N)s2)c1 stands at 143 to 145 °C

Short answer for NC(=O)N1CCc2cc(S(=O)(=O)F)ccc21 : melting point was 218 to 220 °C

melting point reported for this compound CC(C)(C)OC(=O)N1C[C@H](C(=O)O)[C@@H](C(F)(F)F)C1 : 117 to 119 °C

###

Reported melting point is given for each of the following compounds.

- compound: "O=C(O)c1cc(N2CCNC2=O)ccc1F"
  melting point: "319 to 321 °C"

Item: COc1ccc(C(C)=O)cc1NC(C)=O | melting point: 120 to 122 °C

Looking up Nc1cc(F)ccc1Sc1ncn[nH]1 , I see its melting point listed as 180 to 182 °C

Given item CCC(Oc1ccccc1F)C(=O)O (configuration not stated) , the value recorded as its melting point is 63 to 65 °C

For this compound ( COc1ccc(-c2nn(CCC#N)cc2/C=C(/C#N)C(=O)O)cc1 ), measured melting point is 212 to 214 °C

Lab note: Cc1cccc(N2CC(C(=O)O)CC2=O)c1C (configuration not stated) gave melting point of 211 to 213 °C

response.value for NC(=O)c1cncc(O)c1 (field: melting point) = 249 to 251 °C

Reported melting point of Cc1cc(S(=O)(=O)Cl)ccc1-n1cnnn1 : 134 to 136 °C

Please fill in: melting point reported for O=Cc1cnc(N2CCOCC2)s1 = 163 to 165 °C

###

melting point reference

- compound: "CC(NC(N)=O)C(=O)O (configuration not stated)"
  melting point: "171 to 173 °C"

Lab book: melting point of Nc1ccc([N+](=O)[O-])c(Br)c1 noted as 169 to 171 °C

The compound listed as O=C(CCl)N(C1CCCC1)C1CCS(=O)(=O)C1 (configuration not stated) has a reported melting point of < 17 °C

Lab note: measured melting point of CCOC(=O)c1ccc(C#N)c(S)n1 was 169 to 171 °C

Briefly, melting point measured for Fc1ccc2c(C3CCNCC3)c[nH]c2c1 : 225 to 227 °C

Entry under test: Cc1c(F)cc(C(=O)O)cc1S(=O)(=O)Cl . Its melting point was 179 to 181 °C

Lab note: measured melting point of N#Cc1cc2c([nH]c1=O)CCN(CCc1ccccc1)C2 was 219 to 221 °C

###

Recorded melting point by entry

Value of melting point reported for the compound CC(C)Cn1c(S)nc2cc(Cl)ccc2c1=O is 221 to 223 °C

# melting point of CC(Cc1ccc(C(F)(F)F)cc1)C(=O)O (stereo not given) = 68 to 70 °C

Value of melting point reported for the compound NS(=O)(=O)c1ccc(-c2ccc(Br)cc2)cc1 is 207 to 209 °C

So, CS(=O)(=O)c1ccccc1N ? Its melting point was 62 to 64 °C

Notebook: CCCOc1ccc(/C=C/C(=O)O)cc1 , melting point read as 179 to 181 °C

CC1CC(C)CN(S(=O)(=O)c2ccc(S(=O)(=O)Cl)cc2)C1 (stereo not given) yielded melting point of 153 to 155 °C

###

outcome_measure: melting point

- compound: "COc1ccc(Cn2nccc2N)c(OC)c1OC"
  melting point: "71 to 75 °C"

The value of melting point measured for the compound COC(=O)CCOc1ccc(Cl)cc1Cl turned out to be 35 to 37 °C

Note to self: melting point recorded for N#CCc1csc(-c2ccccc2)n1 was 57 to 59 °C

Kindly note the recorded melting point for CCC(C)C(C)S(N)(=O)=O (stereo unspecified) , which is 44 to 46 °C

melting point measured on Cc1cc(C)c(C(N)=O)c(S)n1 = 167 to 170 °C

###

outcome_measure: melting point

Example cases with answers are listed next.
- smiles_text: "COc1cccc(-c2c[nH]cc2C(=O)O)c1"
  melting point: "143 to 145 °C"
- smiles_text: "Cn1cc(CO)c(-c2ccccc2)n1"
  melting point: "107 to 109 °C"

Record NC(=S)c1ncccn1 , field melting point: 197 to 199 °C

melting point in this record for O=C(O)CCC(=O)N1CCC(c2ccccc2)=N1 : 182 to 184 °C

Per the records, this compound ( O=C1Nc2c(F)ccc(Cl)c2C1=O ) has melting point equal to 279 to 281 °C

Summary for this compound, CN(C)c1ccc(C(=O)O)c(F)c1 : melting point is 199 to 201 °C

Measured melting point, O=C(NCCCCl)OCc1ccccc1 : 30 to 32 °C

###

Each item that follows carries a reported melting point.

Recorded melting point, per entry:
- smiles_text: "CS(=O)(=O)Nc1cc(N)ccc1F"
  melting point: "154 to 156 °C"
- smiles_text: "O=C(O)c1c[nH]c(-c2ccccc2)n1"
  melting point: "240 to 242 °C"
- smiles_text: "Nc1c(C(=O)O)ccc(Cl)c1Cl"
  melting point: "235 to 237 °C"
- smiles_text: "O=C(O)CCCOc1ccc(Br)cc1"
  melting point: "130 to 132 °C"
- smiles_text: "COc1cc(C(=O)O)ccc1OCc1ccc(Br)cc1"
  melting point: "224 to 226 °C"

Here is another molecule to look at.
Field melting point (entry NC(=Nc1ccccc1)N1CCCCC1 ) reads 61 to 63 °C

###

outcome_measure: melting point

- compound: "O=C1CCc2[nH]c3ccccc3c2C1"
  reported: "129 to 131 °C"
- compound: "CC(C)n1cccc1C(=O)Nc1cc(Cl)ccc1C(=O)O"
  reported: "226 to 228 °C"
- compound: "Cc1nnnn1-c1ccc(F)c(N)c1"
  reported: "156 to 158 °C"
- compound: "O=c1c([N+](=O)[O-])c(Cl)nc2ccccn12"
  reported: "212 to 214 °C"
- compound: "O=C(O)CCCSc1ccc(Cl)cc1"
  reported: "106 to 108 °C"
- compound: "O=C(O)C1CCCCN1Cc1ccc(F)cc1 (configuration not stated)"
  reported: "218 to 220 °C"

Then this compound:
GET /value?item= O=C(CCl)c1ccc(Br)cc1 &field=melting point returns 119 to 121 °C

###

Items are presented alongside their recorded melting point.

- molecule: "CNC(CCO)c1ccccc1 (configuration not stated)"
  melting point: "56 to 58 °C"
- molecule: "CC(C)(C)OC(=O)C(C#N)c1ccc([N+](=O)[O-])cn1 (configuration not stated)"
  melting point: "168 to 170 °C"
- molecule: "CCNC(=O)Nc1cccc(F)c1C(=O)O"
  melting point: "159 to 161 °C"

melting point measured on Cc1cc(C)c2cc(C(=O)O)sc2n1 = 198 to 200 °C

The molecule listed as O=C(O)c1c[nH]nc1-c1ccncc1 shows melting point equal to 334 to 336 °C

Entry CCc1ccc(C(=O)CCl)s1 ; melting point = 52 to 54 °C

Record Cn1c(S)nnc1N1CCOCC1 , field melting point: 194 to 196 °C
